# SYSTEM_TESTED: Follicle-stimulating hormone receptor (Homo sapiens)
# Sequence (P23945 whole entry): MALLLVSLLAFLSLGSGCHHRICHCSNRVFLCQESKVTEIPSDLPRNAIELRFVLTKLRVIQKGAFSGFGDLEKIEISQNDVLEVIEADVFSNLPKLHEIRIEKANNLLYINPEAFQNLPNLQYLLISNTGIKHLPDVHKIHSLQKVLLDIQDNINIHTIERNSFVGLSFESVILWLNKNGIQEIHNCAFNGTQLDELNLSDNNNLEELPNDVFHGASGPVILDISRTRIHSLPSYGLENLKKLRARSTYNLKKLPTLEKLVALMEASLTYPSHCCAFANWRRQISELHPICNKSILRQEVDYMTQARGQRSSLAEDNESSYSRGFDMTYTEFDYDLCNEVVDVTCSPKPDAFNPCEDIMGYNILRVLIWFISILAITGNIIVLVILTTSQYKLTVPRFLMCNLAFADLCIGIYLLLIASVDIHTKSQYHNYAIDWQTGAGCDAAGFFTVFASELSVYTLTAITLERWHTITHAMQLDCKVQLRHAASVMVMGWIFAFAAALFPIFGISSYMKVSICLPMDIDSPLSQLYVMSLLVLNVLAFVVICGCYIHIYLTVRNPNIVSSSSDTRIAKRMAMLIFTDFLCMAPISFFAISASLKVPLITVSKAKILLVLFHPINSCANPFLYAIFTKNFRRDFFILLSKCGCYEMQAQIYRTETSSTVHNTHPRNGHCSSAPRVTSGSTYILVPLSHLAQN
# EXPERIMENT_SUMMARY: Positive allosteric modulation of human FSHR expressed in rat granulosa cells assessed as FSH-induced estradiol production after 72 hrs by radioimmunossay
# Type: cell-based
Hi there, I'd appreciate the recorded pEC50 for every entry that follows.
Give bare numbers, as −log10 of the molar value.

Return reported pEC50 values for all items listed beneath this line.
1. Cc1ccccc1N1CCN(c2ccc(C(=O)NCCCN3CCCC3=O)cc2NC(=O)c2ccc(F)cc2)CC1
2. Cc1ccccc1N1CCN(c2ccc(C(=O)NCCCc3nn[nH]n3)cc2NC(=O)c2coc(C3CC3)n2)CC1
3. Cc1ccccc1N1CCN(c2ccc(C(=O)NCCCN3CCCC3=O)cc2NC(=O)c2coc(C3CC3)n2)CC1

# output
7.00
7.00
7.00

----------
# SYSTEM_TESTED: Follicle-stimulating hormone receptor (Homo sapiens)
# EXPERIMENT_SUMMARY: Positive allosteric modulation of FSHR (unknown origin) expressed in CHO cells assessed as FSH-induced cAMP accumulation incubated for 1 hr by HTRF assay
# Type: functional, cell-based
pEC50: −log10 of the molar value.
Hi there, I'd appreciate the recorded pEC50 for every entry that follows.

Cc1ccccc1N1CCN(c2ccc(C(=O)NCCCN3CCCC3=O)cc2NC(=O)c2ccc(F)cc2)CC1: 7.00

Return reported pEC50 values for all items listed beneath this line.
1. Cc1ccccc1N1CCN(c2ccc(C(=O)NCCCN3CCCC3=O)cc2NC(=O)c2ccco2)CC1
2. C=CCNC(=O)NCCCNC(=O)c1ccc(N2CCN(c3ccccc3C)CC2)c(NC(=O)c2ccco2)c1
3. Cc1ccccc1N1CCN(c2ccc(C(=O)N[C@H]3CCC[C@H](O)C3)cc2NC(=O)c2coc(C3CC3)n2)CC1
4. Cc1ccccc1N1CCN(c2ccc(C(=O)NCCCc3nn[nH]n3)cc2NC(=O)c2coc(C3CC3)n2)CC1
5. Cc1ccccc1N1CCN(c2ccc(C(=O)NCCCN3CCCC3=O)cc2NC(=O)c2coc(C3CC3)n2)CC1

# output
1: > 7.00; 2: > 7.00; 3: > 7.00; 4: > 7.00; 5: > 7.00

Origin of values: ChEMBL document CHEMBL3808353
